Molecular target: Protein kinase Pfmrk (Plasmodium falciparum, UniProt P90584)
Sequence (P90584 whole entry): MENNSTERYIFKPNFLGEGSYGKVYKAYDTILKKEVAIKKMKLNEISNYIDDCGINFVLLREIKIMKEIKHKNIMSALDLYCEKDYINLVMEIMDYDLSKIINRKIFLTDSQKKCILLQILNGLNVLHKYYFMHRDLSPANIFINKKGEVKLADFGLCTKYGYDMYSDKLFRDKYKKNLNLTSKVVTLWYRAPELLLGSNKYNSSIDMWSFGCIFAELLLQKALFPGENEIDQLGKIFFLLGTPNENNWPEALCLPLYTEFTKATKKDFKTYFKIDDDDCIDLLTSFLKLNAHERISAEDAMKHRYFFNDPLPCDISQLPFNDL
pIC50: −log10 of the molar value.
Given measured pIC50, output Criterion met if it is greater than or equal to 4 and Criterion not met if not.

molecule | assignedLabel
NC(=S)NC1(c2ccccc2)OC(=O)c2ccccc21 (centres undefined) | Criterion met
NNC(Cc1c[nH]c2ccccc12)C(=O)O (centres undefined) | Criterion not met
N#C/C(=C1\OC(=O)N(c2ccc(Cl)cc2)C1=O)c1ccc(Cl)cc1 | Criterion met
OC(c1cc(C(F)(F)F)nc2c(C(F)(F)F)cccc12)C1CCCCN1 (centres undefined) | Criterion met
O=C1c2cc(F)ccc2-n2c1nc1ncccc1c2=O | Criterion met
Cn1cc(C(=O)C(C)(C)N)c2ccccc21 | Criterion met
Cn1cnc2c(NCc3ccccc3)nc(NCCO)nc21 | Criterion not met
CC1NN=C(c2ccccc2)C1[N+](=O)[O-] (centres undefined) | Criterion not met
CCOC(=O)/C(=C\c1ccccn1)C(=O)c1ccc([N+](=O)[O-])cc1 | Criterion met

---

target: Protein kinase Pfmrk (Plasmodium falciparum, UniProt P90584); assay: Inhibition of Plasmodium falciparum cyclin-dependent kinase
pIC50: −log10 of the molar value.
Recorded pIC50 by entry

structureNotation | pIC50
O=C(/C=C/c1ccccc1)c1cccc([N+](=O)[O-])c1 | 5.00
O=c1c(O)c(-c2cc(O)c(O)c(O)c2)oc2cc(O)cc(O)c12 | 3.80
O=[N+]([O-])c1cc(S(=O)(=O)Nc2ccc(C(F)(F)F)cc2)sc1Cl | 5.60
O=S(=O)(O)c1cc(O)c(/N=N/c2ccc(O)cc2O)c2ccccc12 | 4.96
O=c1cc(-c2ccc(O)cc2)oc2cc(O)cc(O)c12 | 5.15
O=C1/C(=C/c2ccccn2)CCc2ccccc21 | 4.77
Cc1ccc(C(=O)/C=C2\C(=O)Nc3ccc(Br)cc32)cc1 | 5.54
O=C1c2cc([N+](=O)[O-])ccc2-n2c1nc1ncccc1c2=O | 6.89
CN(C)CCCn1cc(C2=C(c3c[nH]c4ccccc34)C(=O)NC2=O)c2ccccc21 | 4.62
O=C(Cl)c1c2c(nc3c(Cl)cc(Cl)cc13)-c1ccc(Cl)cc1CC2 | 4.60
